Reference source: patent US11311593B2

- System: hyaluronidase
- measurement-description: Target Binding affinity test for hyaluronidase
- experimental-context: ligands in non-stimulated M. alba root extract; moracenin B = reference ligand
The following compounds are listed with their measured Relative affinity (RA) for hyaluronidase values.
Please state the value as a number alone, without comment.

The cases that follow already have their Relative affinity (RA) for hyaluronidase on record.
* CC(C)=CCc1c(-c2ccc(O)cc2O)oc2c([C@H]3C=C(C)C[C@H](C(=O)c4ccc(O)cc4O)[C@@H]3c3ccc(O)cc3O)c(O)cc(O)c2c1=O | 1.0
* CC(C)=CCc1c(O)ccc(C(=O)[C@@H]2CC(C)=C[C@H](c3c(O)cc(O)c4c(=O)c(CC=C(C)C)c(-c5ccc(O)cc5O)oc34)[C@H]2c2ccc(O)cc2O)c1O | 1.9
* CC(C)=CCc1c(O)ccc(C(=O)C2C(c3c(O)cc(-c4cc5ccc(O)c(CC=C(C)C)c5o4)cc3O)C=C(C)CC2c2ccc(O)cc2O)c1O (stereo not shown) | 2.7

Reported Relative affinity (RA) for hyaluronidase for CC(C)=CCc1c(O)ccc(C(=O)C2C(c3ccc(O)cc3O)CC3(C)CC2c2c(O)cc(-c4cc5ccc(O)cc5o4)cc2O3)c1O (stereo not shown) : what is it?
2.1

----------
- System: fungal tyrosinase
- measurement-description: Target Binding affinity test for tyrosinase (UPLC-MS of bound ligands)
- experimental-context: ligands in non-stimulated M. alba root extract; moracenin B = reference ligand
assay-metric: Relative affinity (RA) for tyrosinase
Please state the value as a number alone, without comment.

The cases that follow already have their Relative affinity (RA) for tyrosinase on record.
• CC(C)=CCc1c(O)ccc(C(=O)C2C(c3ccc(O)cc3O)CC3(C)CC2c2c(O)cc(-c4cc5ccc(O)cc5o4)cc2O3)c1O (stereo not shown) = 15.5
• CC(C)=CCc1c(O)ccc(C(=O)[C@@H]2CC(C)=C[C@H](c3c(O)cc(O)c4c(=O)c(CC=C(C)C)c(-c5ccc(O)cc5O)oc34)[C@H]2c2ccc(O)cc2O)c1O = 5.1
• CC(C)=CCc1c(-c2ccc(O)cc2O)oc2c([C@H]3C=C(C)C[C@H](C(=O)c4ccc(O)cc4O)[C@@H]3c3ccc(O)cc3O)c(O)cc(O)c2c1=O = 1.0

Now for a further molecule.
Reported Relative affinity (RA) for tyrosinase for CC(C)=CCc1c(O)ccc(C(=O)C2C(c3c(O)cc(-c4cc5ccc(O)c(CC=C(C)C)c5o4)cc3O)C=C(C)CC2c2ccc(O)cc2O)c1O (stereo not shown) : what is it?
36.2

----------
- System: collagenase obtained from Clostridium Histolyticum
- measurement-description: Target Binding affinity test for collagenase
- experimental-context: ligands in non-stimulated M. alba root extract; moracenin B = reference ligand
assay-metric: Relative affinity (RA) for collagenase
Please state the value as a number alone, without comment.

The cases that follow already have their Relative affinity (RA) for collagenase on record.
* CC(C)=CCc1c(O)ccc(C(=O)[C@@H]2CC(C)=C[C@H](c3c(O)cc(O)c4c(=O)c(CC=C(C)C)c(-c5ccc(O)cc5O)oc34)[C@H]2c2ccc(O)cc2O)c1O | 1.1
* CC(C)=CCc1c(O)ccc(C(=O)C2C(c3ccc(O)cc3O)CC3(C)CC2c2c(O)cc(-c4cc5ccc(O)cc5o4)cc2O3)c1O (stereo not shown) | 1.1
* CC(C)=CCc1c(-c2ccc(O)cc2O)oc2c([C@H]3C=C(C)C[C@H](C(=O)c4ccc(O)cc4O)[C@@H]3c3ccc(O)cc3O)c(O)cc(O)c2c1=O | 1.0

Now for a further molecule.
Reported Relative affinity (RA) for collagenase for CC(C)=CCc1c(O)ccc(C(=O)C2C(c3c(O)cc(-c4cc5ccc(O)c(CC=C(C)C)c5o4)cc3O)C=C(C)CC2c2ccc(O)cc2O)c1O (stereo not shown) : what is it?
1.1
